- ASSAY TARGET: UniProtKB P19643
- Sequence (P19643 whole entry): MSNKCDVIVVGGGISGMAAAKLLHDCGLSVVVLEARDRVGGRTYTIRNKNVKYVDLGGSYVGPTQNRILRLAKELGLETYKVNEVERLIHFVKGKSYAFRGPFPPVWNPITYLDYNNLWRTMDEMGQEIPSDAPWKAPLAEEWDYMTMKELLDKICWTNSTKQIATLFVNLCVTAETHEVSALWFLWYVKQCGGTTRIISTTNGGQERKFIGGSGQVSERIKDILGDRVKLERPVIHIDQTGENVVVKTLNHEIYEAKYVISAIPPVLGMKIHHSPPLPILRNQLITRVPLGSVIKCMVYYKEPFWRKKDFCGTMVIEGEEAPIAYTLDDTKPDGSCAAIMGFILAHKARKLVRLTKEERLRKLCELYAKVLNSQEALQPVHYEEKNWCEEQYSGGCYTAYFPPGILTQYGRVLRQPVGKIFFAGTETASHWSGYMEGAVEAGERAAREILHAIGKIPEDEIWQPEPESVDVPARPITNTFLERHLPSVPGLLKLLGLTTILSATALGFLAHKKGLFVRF
- METHOD DESCRIPTION: Inhibition of Sprague-Dawley rat MAO-B using Kynuramine as substrate assessed as formation of 4-hydroxyquinoline preincubated for 5 mins prior to substrate addition measured for 5 mins by spectrophotometry
- ASSAY CONDITIONS: read-out: pIC50 (converted)
MEASURED QUANTITY: IC50 (nM)

Examples with their reported IC50 follow.
Req: Request the reported IC50 associated with "O=c1cc(CN2CCOCC2)c2ccc(OCc3cccc(Cl)c3)cc2o1"
Resp: 2290

Req: For "CCCOc1cc(=O)oc2cc(OCc3ccccc3)ccc12" then?
Resp: 575

Req: For "CCOC(=O)COc1cc(=O)oc2cc(OCc3cccc(Cl)c3)ccc12" then?
Resp: 1820

Req: For "O=c1cc(O)c2ccc(OCc3cccc(Br)c3)cc2o1" then?
Resp: 490

Req: For "CCOC(=O)c1cc(=O)oc2cc(OCc3cccc(Cl)c3)ccc12" then?
Resp: 417

(1) COc1cc(=O)oc2cc(OCc3cccc(Br)c3)ccc12
(2) CN(C)C(=O)COc1cc(=O)oc2cc(OCc3cccc(Cl)c3)ccc12
(3) O=c1cc(CCl)c2ccc(OCc3cccc(Cl)c3)cc2o1
Req: Highest IC50 first, then in falling order down to the smallest. Put the labels in the order asked and list them.
Resp: 2, 3, 1
(2: 501 nM, 3: 43.7 nM, 1: 5.75 nM)

* * *

- ASSAY TARGET: MAO-A (amine oxidase [flavin-containing] A) (Rattus norvegicus, UniProt P21396)
- METHOD DESCRIPTION: Inhibition of Sprague-Dawley rat MAO-A using Kynuramine as substrate assessed as formation of 4-hydroxyquinoline at 10 uM preincubated for 5 mins prior to substrate addition measured for 5 mins by spectrophotometry
- ASSAY CONDITIONS: rat MAO-A enzyme preparation, probe kynuramine
MEASURED QUANTITY: inhibition at 5 min, 10 µM (%)

Req: Request the reported inhibition at 5 min, 10 µM associated with "CCOC(=O)COc1cc(=O)oc2cc(OCc3cccc(Cl)c3)ccc12"
Resp: 0

Req: For "CC(C)Oc1cc(=O)oc2cc(OCc3cccc(Cl)c3)ccc12" then?
Resp: 3

Req: For "CCCNCc1cc(=O)oc2cc(OCc3cccc(Cl)c3)ccc12" then?
Resp: 3.2

Req: For "N#Cc1cc(=O)oc2cc(OCc3cccc(Cl)c3)ccc12" then?
Resp: 23

Req: For "O=c1cc(CN2CCCC2)c2ccc(OCc3cccc(Cl)c3)cc2o1" then?
Resp: 16

(a) CCCCNCc1cc(=O)oc2cc(OCc3cccc(Cl)c3)ccc12
(b) O=C(O)COc1cc(=O)oc2cc(OCc3cccc(Cl)c3)ccc12
Req: When a and b are compared, which has the higher number for inhibition at 5 min, 10 µM? Mark your selection by writing its label.
Resp: a

(P) O=c1cc(CO)c2ccc(OCc3cccc(Br)c3)cc2o1
(Q) CCCOc1cc(=O)oc2cc(OCc3cccc(Br)c3)ccc12
Req: Pick one, P or Q : lowest reported inhibition at 5 min, 10 µM. Mark your selection by writing its label.
Resp: Q
(Q: 0%, P: 49%)

(P) COCOc1cc(=O)oc2cc(OCc3cccc(Cl)c3)ccc12
(Q) O=c1cc(O)c2ccc(OCc3cccc(Br)c3)cc2o1
Req: When P and Q are compared, which has the higher number for inhibition at 5 min, 10 µM? Mark your selection by writing its label.
Resp: P
(P: 23%, Q: 0%)

* * *

- ASSAY TARGET: MAO-A (amine oxidase [flavin-containing] A) (Rattus norvegicus, UniProt P21396)
- METHOD DESCRIPTION: Inhibition of Sprague-Dawley rat MAO-A using Kynuramine as substrate assessed as formation of 4-hydroxyquinoline at 10 uM preincubated for 5 mins prior to substrate addition measured for 5 mins by spectrophotometry
- ASSAY CONDITIONS: rat MAO-A enzyme preparation, probe kynuramine
MEASURED QUANTITY: inhibition at 5 min, 10 µM (%)

Req: Param readout = inhibition at 5 min, 10 µM; param system = MAO-A (amine oxidase [flavin-containing] A) (Rattus norvegicus, UniProt P21396); param query = "O=C(COc1cc(=O)oc2cc(OCc3cccc(Cl)c3)ccc12)N1CCOCC1" ; response: value
Resp: 3.2

(P) O=Cc1cc(=O)oc2cc(OCc3cccc(Cl)c3)ccc12
(Q) CCCOc1cc(=O)oc2cc(OCc3ccccc3)ccc12
(R) COc1cc(=O)oc2cc(OCc3cccc(F)c3)ccc12
(S) CN(C)Cc1cc(=O)oc2cc(OCc3cccc(Cl)c3)ccc12
(T) O=c1cc(CCl)c2ccc(OCc3cccc(Cl)c3)cc2o1
Req: Highest inhibition at 5 min, 10 µM first, then in falling order down to the smallest. Put the labels in the order asked and list them.
Resp: R, T, P, S, Q
(R: 49%, T: 21%, P: 14%, S: 5.7%, Q: 0%)

(I) O=c1cc(C(F)(F)F)c2ccc(OCc3cccc(Cl)c3)cc2o1
(II) CNCc1cc(=O)oc2cc(OCc3cccc(Br)c3)ccc12
Req: When I and II are compared, which has the higher number for inhibition at 5 min, 10 µM? Mark your selection by writing its label.
Resp: II
(II: 40%, I: 16%)

* * *

- ASSAY TARGET: MAO-A (amine oxidase [flavin-containing] A) (Rattus norvegicus, UniProt P21396)
- Sequence (P21396 whole entry): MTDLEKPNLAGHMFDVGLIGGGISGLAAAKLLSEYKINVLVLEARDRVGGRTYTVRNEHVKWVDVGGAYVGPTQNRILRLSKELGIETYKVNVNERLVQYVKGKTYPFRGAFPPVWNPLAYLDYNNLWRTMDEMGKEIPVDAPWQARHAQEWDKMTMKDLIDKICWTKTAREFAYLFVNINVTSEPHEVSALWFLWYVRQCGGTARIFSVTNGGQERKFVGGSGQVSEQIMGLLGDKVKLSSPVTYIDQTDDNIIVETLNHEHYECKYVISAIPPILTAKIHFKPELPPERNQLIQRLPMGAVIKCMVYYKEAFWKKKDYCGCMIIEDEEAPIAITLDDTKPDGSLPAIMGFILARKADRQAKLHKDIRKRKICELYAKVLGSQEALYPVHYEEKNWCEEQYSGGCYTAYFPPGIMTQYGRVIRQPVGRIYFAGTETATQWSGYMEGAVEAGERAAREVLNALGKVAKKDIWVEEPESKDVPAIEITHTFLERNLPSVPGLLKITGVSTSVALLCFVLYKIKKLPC
- METHOD DESCRIPTION: Inhibition of Sprague-Dawley rat MAO-A using Kynuramine as substrate assessed as formation of 4-hydroxyquinoline at 10 uM preincubated for 5 mins prior to substrate addition measured for 5 mins by spectrophotometry
- ASSAY CONDITIONS: rat MAO-A enzyme preparation, probe kynuramine
MEASURED QUANTITY: inhibition at 5 min, 10 µM (%)

(I) CCOc1cc(=O)oc2cc(OCc3ccccc3)ccc12
(II) O=c1cc(/C=N/O)c2ccc(OCc3cccc(Cl)c3)cc2o1
Req: Pick one, I or II : lowest reported inhibition at 5 min, 10 µM. Mark your selection by writing its label.
Resp: I
(I: 0%, II: 48%)

(a) CCCOc1cc(=O)oc2cc(OCc3cccc(F)c3)ccc12
(b) CCc1cc(=O)oc2cc(OCc3cccc(Cl)c3)ccc12
Req: Pick one, a or b : lowest reported inhibition at 5 min, 10 µM. Mark your selection by writing its label.
Resp: a

(A) O=c1cc(CN2CCOCC2)c2ccc(OCc3cccc(Cl)c3)cc2o1
(B) O=c1cc(CCl)c2ccc(OCc3cccc(Br)c3)cc2o1
(C) O=C(O)c1cc(=O)oc2cc(OCc3cccc(Cl)c3)ccc12
Req: Order the entries by their reported inhibition at 5 min, 10 µM, beginning at the minimum. Put the labels in the order asked and list them.
Resp: C, A, B
(C: 0%, A: 11%, B: 28%)

meta.source: ChEMBL document CHEMBL3091413
